Recorded pIC50 by entry
# TARGET OF ASSAY: PI3Kalpha (Homo sapiens, UniProt P42336)
# Sequence (P42336 whole entry): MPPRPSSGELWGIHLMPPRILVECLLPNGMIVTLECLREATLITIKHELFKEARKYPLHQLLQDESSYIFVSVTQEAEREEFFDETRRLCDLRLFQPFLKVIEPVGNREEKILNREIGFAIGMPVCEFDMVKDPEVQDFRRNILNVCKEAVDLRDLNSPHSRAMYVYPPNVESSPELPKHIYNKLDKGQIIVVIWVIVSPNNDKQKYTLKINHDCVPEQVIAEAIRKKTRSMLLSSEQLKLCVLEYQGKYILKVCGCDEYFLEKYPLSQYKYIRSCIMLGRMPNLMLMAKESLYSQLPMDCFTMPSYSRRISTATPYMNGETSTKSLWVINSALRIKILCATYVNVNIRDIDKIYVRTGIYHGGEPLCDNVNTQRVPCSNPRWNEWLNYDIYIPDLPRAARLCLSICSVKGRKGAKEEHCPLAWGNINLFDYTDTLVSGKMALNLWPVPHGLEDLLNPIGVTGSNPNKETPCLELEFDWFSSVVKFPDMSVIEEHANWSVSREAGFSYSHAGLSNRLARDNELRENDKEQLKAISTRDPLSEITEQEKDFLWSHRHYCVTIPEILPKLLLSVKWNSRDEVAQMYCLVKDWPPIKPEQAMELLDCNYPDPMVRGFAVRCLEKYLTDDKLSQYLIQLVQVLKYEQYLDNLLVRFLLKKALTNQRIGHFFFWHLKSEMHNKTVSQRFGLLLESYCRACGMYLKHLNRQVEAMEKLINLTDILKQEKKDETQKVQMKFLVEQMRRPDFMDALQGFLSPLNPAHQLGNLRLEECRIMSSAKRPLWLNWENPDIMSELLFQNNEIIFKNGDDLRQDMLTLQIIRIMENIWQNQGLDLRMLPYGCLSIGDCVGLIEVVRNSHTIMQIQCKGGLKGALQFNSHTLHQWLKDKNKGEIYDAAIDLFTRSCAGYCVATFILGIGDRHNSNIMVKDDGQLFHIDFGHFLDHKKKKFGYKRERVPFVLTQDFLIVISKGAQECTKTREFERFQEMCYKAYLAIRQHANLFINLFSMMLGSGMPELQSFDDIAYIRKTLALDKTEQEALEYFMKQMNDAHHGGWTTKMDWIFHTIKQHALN
# Sequence (P27986 whole entry partner): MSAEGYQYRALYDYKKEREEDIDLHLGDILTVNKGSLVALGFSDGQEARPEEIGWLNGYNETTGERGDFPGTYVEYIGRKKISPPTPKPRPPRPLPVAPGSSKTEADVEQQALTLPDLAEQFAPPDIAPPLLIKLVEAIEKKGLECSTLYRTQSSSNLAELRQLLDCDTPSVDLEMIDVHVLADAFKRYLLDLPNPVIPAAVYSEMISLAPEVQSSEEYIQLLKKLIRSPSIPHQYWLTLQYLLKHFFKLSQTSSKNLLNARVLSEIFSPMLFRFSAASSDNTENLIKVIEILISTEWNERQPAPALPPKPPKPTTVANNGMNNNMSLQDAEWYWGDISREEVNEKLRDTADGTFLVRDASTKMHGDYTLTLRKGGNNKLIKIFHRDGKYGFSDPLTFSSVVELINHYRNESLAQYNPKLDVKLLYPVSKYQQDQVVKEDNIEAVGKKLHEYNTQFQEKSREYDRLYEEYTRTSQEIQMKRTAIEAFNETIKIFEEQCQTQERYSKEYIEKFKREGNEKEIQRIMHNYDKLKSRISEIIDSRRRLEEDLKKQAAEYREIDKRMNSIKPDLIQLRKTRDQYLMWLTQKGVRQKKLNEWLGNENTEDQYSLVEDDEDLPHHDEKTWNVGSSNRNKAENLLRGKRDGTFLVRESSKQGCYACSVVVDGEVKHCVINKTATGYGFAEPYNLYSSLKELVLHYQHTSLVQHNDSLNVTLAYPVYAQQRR
# EXPERIMENTAL DETAILS: Biochemical PI3Kalpha assay (neomycin SPA, lipid phosphorylation)
# CONDITION SUMMARY: human recombinant GST-PI3K
pIC50: −log10 of the molar value.

Cn1cc(-c2cc(-c3cnc4c(c3)CC(=O)N4)ccn2)n(-c2ccc(C(C)(C)C#N)cc2)c1=O    5.00 to 7.00

# compound Cn1cc(-c2cc(-c3cnc4[nH]ncc4c3)ccn2)n(-c2ccc(N3CCNCC3)c(C(F)(F)F)c2)c1=O ; its pIC50 = 7.00 to 10.00

# compound Cn1cc(-c2cc(-c3cnc4c(c3)CCN4)ccn2)n(-c2ccc(C(C)(C)C#N)cc2)c1=O ; its pIC50 = 7.00 to 10.00

# compound Cn1cc(-c2cc(-c3ccc4[nH]ncc4c3)ccn2)n(-c2ccc(C(C)(C)C#N)cc2)c1=O ; its pIC50 = 5.00 to 7.00

# compound Cc1cccc(-n2c(-c3cc(-c4cnc5[nH]ccc5c4)ccn3)cn(C)c2=O)c1 ; its pIC50 = 5.00 to 7.00

###

# TARGET OF ASSAY: DNA-PK protein complex (Homo sapiens, UniProt P78527)
# EXPERIMENTAL DETAILS: Biochemical DNA-PK assay (FlashPlate)
pIC50: −log10 of the molar value.
REPORTED METRIC: pIC50

Cn1cc(-c2cc(-c3cnc4ccccc4c3)ccn2)n(-c2ccc(C(C)(C)C(N)=O)cc2)c1=O    7.00 to 10.00

# compound Cn1cc(-c2cc(-c3cnc4[nH]ccc4c3)ccn2)n(-c2ccc(N3CCN(S(C)(=O)=O)CC3)c(C(F)(F)F)c2)c1=O ; its pIC50 = 7.00 to 10.00

# compound COc1ccc(-c2ccnc(-c3c[nH]c(=O)n3-c3ccc(C(C)(C)C#N)cc3)c2)cn1 ; its pIC50 = 5.00 to 7.00

# compound CNc1ccc(-c2ccnc(-c3cn(C)c(=O)n3-c3ccc(C(C)(C)C#N)cc3)c2)cn1 ; its pIC50 = 7.00 to 10.00

# compound Cn1cc(-c2cc(-c3cnc4c(c3)CCN4)ccn2)n(-c2ccc(C(C)(C)C#N)cc2)c1=O ; its pIC50 = 7.00 to 10.00

# compound Cn1cc(-c2cc(-c3cnc4ccccc4c3)ccn2)n(-c2ccc(C(C)(C)C(=O)O)cc2)c1=O ; its pIC50 = 5.00 to 7.00

###

# TARGET OF ASSAY: recombinant PI3Kalpha (shortened form of the catalytic subunit) (Homo sapiens, UniProt P42336)
# Sequence (P42336 151-1068 limits assumed): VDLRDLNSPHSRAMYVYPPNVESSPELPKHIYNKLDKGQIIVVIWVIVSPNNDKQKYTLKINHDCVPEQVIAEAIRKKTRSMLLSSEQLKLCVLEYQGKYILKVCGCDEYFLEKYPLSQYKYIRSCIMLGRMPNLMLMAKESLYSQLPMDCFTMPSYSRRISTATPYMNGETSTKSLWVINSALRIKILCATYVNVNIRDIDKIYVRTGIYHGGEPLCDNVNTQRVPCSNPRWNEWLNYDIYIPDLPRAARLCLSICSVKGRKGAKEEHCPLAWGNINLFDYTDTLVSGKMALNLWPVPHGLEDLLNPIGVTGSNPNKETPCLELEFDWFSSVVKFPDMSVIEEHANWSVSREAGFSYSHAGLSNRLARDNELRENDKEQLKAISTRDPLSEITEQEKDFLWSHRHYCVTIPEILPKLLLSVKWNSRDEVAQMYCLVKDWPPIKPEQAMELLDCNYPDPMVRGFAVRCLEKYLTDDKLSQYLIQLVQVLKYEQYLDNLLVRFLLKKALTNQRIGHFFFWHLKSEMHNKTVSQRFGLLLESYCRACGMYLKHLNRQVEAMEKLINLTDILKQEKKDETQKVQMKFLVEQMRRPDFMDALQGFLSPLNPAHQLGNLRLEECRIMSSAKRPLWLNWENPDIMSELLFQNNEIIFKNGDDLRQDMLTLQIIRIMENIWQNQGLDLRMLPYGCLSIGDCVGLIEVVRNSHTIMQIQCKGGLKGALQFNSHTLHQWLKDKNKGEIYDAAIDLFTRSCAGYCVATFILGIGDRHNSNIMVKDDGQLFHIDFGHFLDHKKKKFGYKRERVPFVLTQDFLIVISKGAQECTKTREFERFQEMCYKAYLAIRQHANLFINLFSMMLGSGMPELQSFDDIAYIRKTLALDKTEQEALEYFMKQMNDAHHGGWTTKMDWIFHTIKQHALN
# EXPERIMENTAL DETAILS: BIACORE PI3K binding assay (SPR)
# CONDITION SUMMARY: 25° C.
# Description: SPR measurements of the binding affinities and binding kinetics on PI3Kalpha surfaces with the aid of Biacore systems. […] The substances to be measured are added in the form of a titration series. […] Data sets are processed and analysed using the Biacore S51 Evaluation software, version 1.2.1, or Biacore T100 Evaluation, version 2.0. […]
pKd: −log10 of the molar value.
REPORTED METRIC: pKd

Examples with answers:
Cn1cc(-c2cc(-c3ccc(NS(C)(=O)=O)cc3)ccn2)n(-c2ccc(N3CCNCC3)c(C(F)(F)F)c2)c1=O    < 5.00
CC(=O)N1CCN(c2ccc(-n3c(-c4cc(-c5cnc6[nH]ccc6c5)ccn4)cn(C)c3=O)cc2C(F)(F)F)CC1    7.00 to 10.00
CN1CCN(c2ccc(-n3c(-c4cc(-c5cnc6[nH]c(C(C)(C)C)cc6c5)ccn4)cn(C)c3=O)cc2C(F)(F)F)CC1    5.00 to 7.00
Cn1cc(-c2cc(-c3cnc4[nH]ccc4c3)ccn2)n(-c2ccc(C#N)cc2)c1=O    5.00 to 7.00
COc1ccc(Cn2c(-c3cc(-c4cnc5[nH]ncc5c4)ccn3)cn(C)c2=O)cc1    5.00 to 7.00

# compound COc1ccc(-c2ccnc(-c3cn(C)c(=O)n3-c3ccc(N4CCNCC4)c(C(F)(F)F)c3)c2)cn1 ; its pKd = 5.00 to 7.00

# compound CN1CCN(c2ccc(-n3c(-c4cc(-c5cnc6[nH]ccc6c5)ccn4)cn(C)c3=O)cc2)CC1 ; its pKd = 7.00 to 10.00

# compound COc1cccc(-c2ccnc(-c3cn(C)c(=O)n3-c3ccc(C(C)(C)C#N)cc3)c2)c1 ; its pKd = 5.00 to 7.00
